Source: paper PMC6435586

# assay_text: Serum stability assay
# Assay type: in vitro ADME, human
# assay_context: lipid component removed by centrifugation, human male serum (lipid removed by centrifugation, pre-incubated 15 min at 37°C), 8 h, peptide 6.6 μM, RP-HPLC C12 peak area at 214 nm as % of 0-h serum-treated peptide, triplicate, mean, read-out: peptide remaining at the 8-h time point in human serum
Where no end group is shown, it is not given here.

>  <substance>
MAMPAFTTDH-NH2 [CTX-1]

>  <remaining at 8 h, 6.6 μM>
> 18%

$$$$
